Molecular target: Delta-type opioid receptor (Homo sapiens)
Test: Effective concentration against stimulation of [35S]GTP-gamma-S, binding in CHO cells transfected with the human opioid receptor delta 1
// pEC50 lookup, one value per entry
Scale: pEC50 equals -log10([C]), with [C] in mol/L.

Guide cases for pEC50, answers given:
1. CCN(CC)C(=O)c1ccc(C(=C2CC3CCC(C2)N3CCC2CCCCC2)c2ccccc2)cc1
6.64
2. CCN(CC)C(=O)c1ccc(/C(=C2\C[C@H]3CC[C@@H](C2)N3CCc2ccccc2)c2ccccc2)cc1
7.47
3. CCN(CC)C(=O)c1ccc(C(=C2CC3CCC(C2)N3CCc2ccc(F)cc2)c2ccccc2)cc1
7.57

What pEC50 value was documented for this compound, CCN(CC)C(=O)c1ccc(/C(=C2/C[C@H]3CC[C@@H](C2)N3CCc2ccccc2)c2ccccc2)cc1 ? 5.86

What pEC50 value was documented for this compound, COCCN(CCOC)C(=O)c1ccc(C(=C2CC3CCC(C2)N3CCc2ccccc2)c2ccccc2)cc1 ? 6.39

What pEC50 value was documented for this compound, CCN(CCO)C(=O)c1ccc(C(=C2CC3CCC(C2)N3CCc2ccccc2)c2ccccc2)cc1 ? 6.26

What pEC50 value was documented for this compound, CCN(CC)C(=O)c1ccc(/C(=C2\C[C@H]3CC[C@@H](C2)N3C)c2ccccc2)cc1 ? 6.82

What pEC50 value was documented for this compound, CCN(CC)C(=O)c1ccc(C(=C2CC3CCC(C2)N3CCc2cccs2)c2ccccc2)cc1 ? 5.87

* * *

Molecular target: Delta-type opioid receptor (Homo sapiens, UniProt P41143)
Sequence (P41143 whole entry): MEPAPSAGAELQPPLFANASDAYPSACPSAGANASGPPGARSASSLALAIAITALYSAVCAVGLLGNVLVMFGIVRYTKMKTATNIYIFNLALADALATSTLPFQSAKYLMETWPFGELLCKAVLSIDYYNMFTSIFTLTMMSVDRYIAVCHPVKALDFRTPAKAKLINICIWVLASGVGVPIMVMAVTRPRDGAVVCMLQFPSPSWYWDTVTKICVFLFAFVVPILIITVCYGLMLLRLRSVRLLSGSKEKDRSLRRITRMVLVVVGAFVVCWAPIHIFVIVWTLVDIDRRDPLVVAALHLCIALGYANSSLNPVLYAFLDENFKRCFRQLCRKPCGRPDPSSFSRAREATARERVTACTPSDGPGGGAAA
Assay: Effective concentration against stimulation of [35S]GTP-gamma-S, binding in CHO cells transfected with the human opioid receptor delta 1
// EC50 lookup, one value per entry
# output: bare number, implied unit nM

1) CCN(CC)C(=O)c1ccc(/C(=C2\C[C@H]3CC[C@@H](C2)N3)c2ccccc2)cc1
1.8
2) CCN(CC)C(=O)c1ccc(C(=C2CC3CCC(C2)N3CC(=O)c2ccccc2)c2ccccc2)cc1
173
3) CCN(CC)C(=O)c1ccc(C(=C2CC3CCC(C2)N3Cc2ccc3c(c2)OCO3)c2ccccc2)cc1
0.2
4) CCN(CC)C(=O)c1ccc(C(=C2CC3CCC(C2)N3)c2ccc(O)cc2)cc1
5
5) O=C(c1ccc(C(=C2CC3CCC(C2)N3CCc2ccccc2)c2ccccc2)cc1)N1CCOCC1
350

What EC50 value was documented for this compound, CCN(CC)C(=O)c1ccc(C(=C2CC3CCC(C2)N3CCc2c[nH]c3ccccc23)c2ccccc2)cc1 ? 16

What EC50 value was documented for this compound, O=C(c1ccc(C(=C2CC3CCC(C2)N3CCc2ccccc2)c2ccccc2)cc1)N1CCCC1 ? 1460

What EC50 value was documented for this compound, C=CCN1[C@@H]2CC[C@H]1C/C(=C(/c1ccccc1)c1ccc(C(=O)N(CC)CC)cc1)C2 ? 177

What EC50 value was documented for this compound, CCN(CC)C(=O)c1ccc(C(=C2CC3CCC(C2)N3CCOc2ccccc2)c2ccccc2)cc1 ? 623

What EC50 value was documented for this compound, CCN(CC)C(=O)c1ccc(/C(=C2/C[C@H]3CC[C@@H](C2)N3C)c2ccccc2)cc1 ? 149

What EC50 value was documented for this compound, CCN(CC)C(=O)c1ccc(C(=C2CC3CCC(C2)N3C)c2cccc(OC)c2)cc1 ? 65

What EC50 value was documented for this compound, CCN(CC)C(=O)c1ccc(C(=C2CC3CCC(C2)N3C)c2ccc(OC)cc2)cc1 ? 27

What EC50 value was documented for this compound, CCN(CC)C(=O)c1ccc(/C(=C2/C[C@H]3CC[C@@H](C2)N3)c2ccccc2)cc1 ? 53

* * *

Biological target: Delta-type opioid receptor (Homo sapiens)
Assay: Binding affinity for delta opioid receptor
// log10(Ki) lookup, one value per entry
Hello, just confirming the data are log10 of Ki with units of nM.

1. CCN(CC)C(=O)c1ccc(C(=C2CC3CCC(C2)N3CCc2ccccc2)c2cccc(OC)c2)cc1
0.13

What log10(Ki) value was documented for this compound, O=C(c1ccc(C(=C2CC3CCC(C2)N3CCc2ccccc2)c2ccccc2)cc1)N1CCOCC1 ? 1.55

* * *

// pEC50 lookup, one value per entry
Target: Delta-type opioid receptor (Homo sapiens, UniProt P41143)
Experiment: Effective concentration against stimulation of [35S]GTP-gamma-S, binding in CHO cells transfected with the human opioid receptor delta 1
Assay type: functional, cell-based
Scale: pEC50 equals -log10([C]), with [C] in mol/L.

1) CCN(CC)C(=O)c1ccc(C(=C2CC3CCC(C2)N3C)c2ccc(O)cc2)cc1
8.05

What pEC50 value was documented for this compound, CCN(CC)C(=O)c1ccc(C(=C2CC3CCC(C2)N3C)c2cccc(O)c2)cc1 ? 8.52

What pEC50 value was documented for this compound, CCCN1C2CCC1CC(=C(c1ccccc1)c1ccc(C(=O)N(CC)CC)cc1)C2 ? 7.37

* * *

Target: Delta-type opioid receptor (Homo sapiens)
Assay: Binding affinity for delta opioid receptor
One threshold, 3 nM, splits the recorded Ki values: lower ones are MET, equal or higher ones are NOT MET.

1) CCN(CC)C(=O)c1ccc(C(=C2CC3CCC(C2)N3CCOc2ccccc2)c2ccccc2)cc1
MET
2) CCN(CC)C(=O)c1ccc(C(=C2CC3CCC(C2)N3Cc2ccc3c(c2)OCO3)c2ccccc2)cc1
MET
3) C=CCN1[C@@H]2CC[C@H]1C/C(=C(/c1ccccc1)c1ccc(C(=O)N(CC)CC)cc1)C2
MET

State whether 3 nM exceeds Ki recorded for CCN(CC)C(=O)c1ccc(C(=C2CC3CCC(C2)N3C)c2cccc(OC)c2)cc1 . NOT MET

State whether 3 nM exceeds Ki recorded for CCN(CC)C(=O)c1ccc(/C(=C2\C[C@H]3CC[C@@H](C2)N3CCc2ccccc2)c2ccccc2)cc1 . MET

State whether 3 nM exceeds Ki recorded for CCN(CC)C(=O)c1ccc(C(=C2CC3CCC(C2)N3CC(=O)c2ccccc2)c2ccccc2)cc1 . NOT MET

State whether 3 nM exceeds Ki recorded for CCN(CCO)C(=O)c1ccc(C(=C2CC3CCC(C2)N3CCc2ccccc2)c2ccccc2)cc1 . NOT MET

* * *

Biological target: Delta-type opioid receptor (Homo sapiens, UniProt P41143)
Assay: Effective concentration against stimulation of [35S]GTP-gamma-S, binding in CHO cells transfected with the human opioid receptor delta 1
reported_metric: EC50 (nM)
# output: bare number, implied unit nM

Guide cases for EC50, answers given:
1) CCCN(CCC)C(=O)c1ccc(C(=C2CC3CCC(C2)N3CCc2ccccc2)c2ccccc2)cc1
3560
2) CC1CCCC(C)N1C(=O)c1ccc(/C(=C2\C[C@H]3CC[C@@H](C2)N3CCc2ccccc2)c2ccccc2)cc1 (some centres not stated)
10000
3) C=C(C)CN(CC)C(=O)c1ccc(/C(=C2\C[C@H]3CC[C@@H](C2)N3CCc2ccccc2)c2ccccc2)cc1
1080
4) CC(C)N(C(=O)c1ccc(C(=C2CC3CCC(C2)N3CCc2ccccc2)c2ccccc2)cc1)C(C)C
5040
5) CCN(CC)C(=O)c1ccc(C(=C2CC3CCC(C2)N3CCc2ccccc2)c2cccc(OC)c2)cc1
218

# get_value(readout= EC50, system= Delta-type opioid receptor (Homo sapiens, UniProt P41143)) for C=CCN1[C@@H]2CC[C@H]1C/C(=C(\c1ccccc1)c1ccc(C(=O)N(CC)CC)cc1)C2 0.5

# get_value(readout= EC50, system= Delta-type opioid receptor (Homo sapiens, UniProt P41143)) for CCN(CC)C(=O)c1ccc(C(=C2CC3CCC(C2)N3CCCc2ccccc2)c2ccccc2)cc1 112

The measured values listed here are drawn from ChEMBL document CHEMBL1148435.
